Target: Phosphatidylinositol 4,5-bisphosphate 3-kinase catalytic subunit alpha isoform (Homo sapiens)
Sequence (P42336 whole entry, canonical isoform): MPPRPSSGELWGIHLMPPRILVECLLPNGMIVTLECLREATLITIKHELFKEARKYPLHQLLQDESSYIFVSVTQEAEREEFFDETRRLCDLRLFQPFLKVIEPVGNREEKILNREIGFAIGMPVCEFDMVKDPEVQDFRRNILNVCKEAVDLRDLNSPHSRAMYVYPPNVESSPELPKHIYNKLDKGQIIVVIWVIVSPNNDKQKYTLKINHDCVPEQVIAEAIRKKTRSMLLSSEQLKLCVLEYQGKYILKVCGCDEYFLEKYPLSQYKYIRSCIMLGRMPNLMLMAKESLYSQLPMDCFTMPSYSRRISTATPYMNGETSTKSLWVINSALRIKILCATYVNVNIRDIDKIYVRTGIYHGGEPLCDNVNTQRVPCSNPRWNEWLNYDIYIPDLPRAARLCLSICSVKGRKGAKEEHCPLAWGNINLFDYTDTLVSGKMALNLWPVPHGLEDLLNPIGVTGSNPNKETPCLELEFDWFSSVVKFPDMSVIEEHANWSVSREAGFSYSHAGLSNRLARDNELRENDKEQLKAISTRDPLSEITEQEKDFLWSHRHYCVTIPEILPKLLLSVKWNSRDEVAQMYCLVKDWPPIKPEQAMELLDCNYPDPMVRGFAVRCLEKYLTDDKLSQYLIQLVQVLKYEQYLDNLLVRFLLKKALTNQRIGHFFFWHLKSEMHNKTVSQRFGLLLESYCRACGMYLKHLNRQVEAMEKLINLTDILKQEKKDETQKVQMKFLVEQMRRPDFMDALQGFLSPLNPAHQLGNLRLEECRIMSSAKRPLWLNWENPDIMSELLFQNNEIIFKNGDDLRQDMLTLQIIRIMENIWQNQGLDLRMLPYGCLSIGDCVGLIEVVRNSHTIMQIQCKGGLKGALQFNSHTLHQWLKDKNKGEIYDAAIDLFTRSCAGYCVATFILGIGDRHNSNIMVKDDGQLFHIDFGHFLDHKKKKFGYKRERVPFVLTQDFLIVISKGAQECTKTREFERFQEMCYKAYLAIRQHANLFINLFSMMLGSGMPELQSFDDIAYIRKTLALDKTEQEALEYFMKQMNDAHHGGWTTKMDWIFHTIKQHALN
Assay: Inhibition of PI3K p110alpha (unknown origin) assessed as residual activity using PIP2 as substrate preincubated for 10 mins followed by substrate addition measured after 1 hr relative to control
Parameters: concentration or dose not given beside the values
Label Met when Activity < 60%; otherwise Not met.

| compound | label-value |
| --- | --- |
| COc1ccc(C(c2c(O)ccc3ccccc23)N2CCCC2=O)cc1 (configuration not stated) | Met |
| O=C1CCCN1C(c1ccc(Br)cc1)c1c(O)ccc2ccccc12 (configuration not stated) | Met |
| COc1cccc(C(c2c(O)ccc3ccccc23)N2CCCC2=O)c1 (configuration not stated) | Met |
| O=C1CCCN1C(c1ccccc1Br)c1c(O)ccc2ccccc12 (configuration not stated) | Not met |
| O=C1CCCN1C(c1ccc(F)cc1)c1c(O)ccc2ccccc12 (configuration not stated) | Not met |
| O=C1CCCN1C(c1ccc(Cl)cc1Cl)c1c(O)ccc2ccccc12 (configuration not stated) | Not met |
